So I've got a bunch of compounds here, and I need their TGI values.
# Test system: 786-0 renal
# ASSAY DETAILS: NCI tumour cell line growth inhibition, 48 h
Enter your answer as a number in µM; do not include the unit.

Kindly note the recorded TGI for "c1ccc(Oc2c3ccccc3nc3ccccc23)cc1" , which is 10.7

Kindly note the recorded TGI for COC1/C=C/C(C)C(C(C)C(OC)C(C)CCC(=O)C(C)C(CC(=O)O)OC)OC(=O)/C=C/C=C(\C)CC(OC)C(OC)C2=CC(=O)O[C@@H](C(C)C(OC)CC(OC)/C=C/C(C)C(O)C1)[C@H]2O (stereo partly specified) , which is 0.12

Kindly note the recorded TGI for "CCN(Cc1ccc(F)cc1F)c1ccc(CO)c(Cl)c1" , which is 29

Kindly note the recorded TGI for "Clc1ccc(N2COOC3(OOC2)C2CC4CC(C2)CC3C4)cc1" , which is 5.73

Kindly note the recorded TGI for "NCCCn1c2c(c3ccccc3c1=O)C(=O)c1cc3c(cc1-2)OCO3" , which is 3.1

Kindly note the recorded TGI for "N#Cc1cccc(Nc2ccccc2SSc2ccccc2Nc2cccc(C#N)c2)c1" , which is 12

Kindly note the recorded TGI for "O=C(CCl)Nc1ccccc1SCc1cc(Cl)cc2c1OCOC2" , which is 26.4

Kindly note the recorded TGI for "CCCCCCCCCCCCOCCCCCCCCC/C=C/c1ccc2c(c1)OCCOCCOCCOCCO2" , which is 26.6

Kindly note the recorded TGI for CCOc1cc(NC(C)=O)ccc1C(=O)NN1C(=O)C(Cl)C1c1ccc(O)c(OC)c1 (stereo unspecified) , which is 26

Kindly note the recorded TGI for CC(=O)N1c2ccccc2C2=NN=C(N(C)C)SC21 (stereo unspecified) , which is 12.5

Kindly note the recorded TGI for "COc1cc(-c2cc(C(=O)Nc3nc4ccccc4s3)nc3cc(-c4ccccc4)nn23)cc(OC)c1OC" , which is 12.8

Kindly note the recorded TGI for "CC1=CC(=C(c2ccc(N)c(C)c2)c2ccc(N)c(C)c2)C=CC1=N" , which is 21.1

Kindly note the recorded TGI for "N#CCN(Cc1ccccc1)[C@H]1CCC[C@]1(O)/C=C/c1ccc2c(c1)OCO2" , which is 31.4

Kindly note the recorded TGI for "COc1cccc(/C=C\c2cc(OC)c(OC)c(OC)c2)c1" , which is 71.5

Kindly note the recorded TGI for Cc1ccc(C)c(NC(=O)CC2C(=O)Nc3ccccc3S2(=O)=O)c1 (stereo unspecified) , which is 56.5
